Test system: MDA-MB-231
Test: Cytotoxicity against human MDA-MB-231 cells assessed as cell viability at 10 uM after 24 hrs by MTT assay relative to control
Type: functional
Conditions: MDA-MB-231, 24 h, read-out: Activity
REPORTED_ENDPOINT: viability at 10 µM (%)
// return numeric value only (unit: %, not printed)

Sample records with viability at 10 µM:
molecule=C=C1C(=O)O[C@@H]2[C@H]3O[C@]3(C)CC/C=C(/COc3coc(-c4ccc(Br)cc4)c3)CC[C@@H]12 target_entity=MDA-MB-231 unit_abbreviation=% val=87.1
molecule="C=C1C(=O)O[C@@H]2[C@H]3O[C@]3(C)CC/C=C(/C)[C@@H](OC(C(=O)OCc3ccccc3)c3ccccc3)C[C@@H]12 (some centres not stated)" target_entity=MDA-MB-231 unit_abbreviation=% val=101
molecule="C=C1C(=O)O[C@@H]2C3O[C@]3(C)CC/C=C(\\C)CC[C@@H]12 (some centres not stated)" target_entity=MDA-MB-231 unit_abbreviation=% val=67
molecule=C=C1C(=O)O[C@@H]2[C@H]3O[C@]3(C)CC/C=C(/COC(=O)c3cc(-c4ccc(Cl)cc4)on3)CC[C@@H]12 target_entity=MDA-MB-231 unit_abbreviation=% val=100
molecule=C=C1C(=O)O[C@@H]2[C@H]3O[C@]3(C)CC/C=C(/C)[C@@H](OC(=O)Nc3ccc(F)cc3F)C[C@@H]12 target_entity=MDA-MB-231 unit_abbreviation=% val=96.4
molecule=C=C1C(=O)O[C@@H]2[C@H]3O[C@]3(C)CC/C=C(/C)[C@@H](OC(=O)Nc3ccccc3)C[C@@H]12 target_entity=MDA-MB-231 unit_abbreviation=% val=100

We next turn to a different molecule, shown below.
Consider the molecule `C=C1C(=O)O[C@@H]2[C@H]3O[C@]3(C)CC/C=C(/C)[C@@H](OC(=O)Nc3cc(C(F)(F)F)cc(C(F)(F)F)c3)C[C@@H]12` and give its measured viability at 10 µM.
16.7

====

System: JeKo-1
Test: Cytotoxicity against human JeKo1 cells assessed as cell viability at 10 uM after 24 hrs by MTT assay relative to control
Format: functional
Settings: JeKo-1, 24 h, read-out: Activity
# viability at 10 µM values compiled below
// return numeric value only (unit: %, not printed)

Sample records with viability at 10 µM:
molecule=C=C1C(=O)O[C@@H]2[C@H]3O[C@]3(C)CC/C=C(/COC(=O)Nc3cc(C(F)(F)F)cc(C(F)(F)F)c3)CC[C@@H]12 target_entity=JeKo-1 reported_endpoint="viability at 10 µM" val=-1.8
molecule=C=C1C(=O)O[C@@H]2[C@H]3O[C@]3(C)CC/C=C(/COC(=O)c3ccc(C(F)(F)F)cc3)CC[C@@H]12 target_entity=JeKo-1 reported_endpoint="viability at 10 µM" val=-1.6
molecule=C=C1C(=O)O[C@@H]2[C@H]3O[C@]3(C)CC/C=C(/C)[C@@H](OC(=O)c3ccc4ccccc4c3)C[C@@H]12 target_entity=JeKo-1 reported_endpoint="viability at 10 µM" val=71.9
molecule=C=C1C(=O)O[C@@H]2[C@H]3O[C@]3(C)CC/C=C(/C)[C@@H](OC(=O)c3cc(-c4ccc(Cl)cc4)on3)C[C@@H]12 target_entity=JeKo-1 reported_endpoint="viability at 10 µM" val=-2.7
molecule=C=C1C(=O)O[C@@H]2[C@H]3O[C@]3(C)CC/C=C(/C)[C@@H](OC(=O)Nc3cc(C(F)(F)F)cc(C(F)(F)F)c3)C[C@@H]12 target_entity=JeKo-1 reported_endpoint="viability at 10 µM" val=-1
molecule=C=C1C(=O)O[C@@H]2[C@H]3O[C@]3(C)CC/C=C(/C)[C@@H](OC(=O)c3ccc(C(F)(F)F)cc3C(F)(F)F)C[C@@H]12 target_entity=JeKo-1 reported_endpoint="viability at 10 µM" val=5.7

Notebook: pull reported viability at 10 µM for JeKo-1, entry C=C1C(=O)O[C@@H]2[C@H]3O[C@]3(C)CC/C=C(/COC(C(=O)OCC)c3ccc(C(F)(F)F)cc3)CC[C@@H]12 (some centres undefined)
26.4

Notebook: pull reported viability at 10 µM for JeKo-1, entry C=C1C(=O)O[C@@H]2C3O[C@]3(C)CC/C=C(\C)CC[C@@H]12 (some centres undefined)
47.5

Notebook: pull reported viability at 10 µM for JeKo-1, entry `C=C1C(=O)O[C@@H]2[C@H]3O[C@]3(C)CC/C=C(/COc3coc(-c4ccc(Br)cc4)c3)CC[C@@H]12`
-2

Notebook: pull reported viability at 10 µM for JeKo-1, entry `C=C1C(=O)O[C@@H]2[C@H]3O[C@]3(C)CC/C=C(\C)[C@@H](OC(=O)c3ccc(C(F)(F)F)cc3)C[C@@H]12`
23.3

Notebook: pull reported viability at 10 µM for JeKo-1, entry `C=C1C(=O)O[C@@H]2[C@H]3O[C@]3(C)CC/C=C(/COCc3ccccc3)CC[C@@H]12`
5

Notebook: pull reported viability at 10 µM for JeKo-1, entry `C=C1C(=O)O[C@@H]2[C@H]3O[C@]3(C)CC/C=C(/COC(=O)c3coc(-c4ccc(Br)cc4)c3)CC[C@@H]12`
7.4

Notebook: pull reported viability at 10 µM for JeKo-1, entry `C=C1C(=O)O[C@@H]2[C@H]3O[C@]3(C)CC/C=C(/COC(=O)c3ccc(C(F)(F)F)cc3C(F)(F)F)CC[C@@H]12`
-2.2

Notebook: pull reported viability at 10 µM for JeKo-1, entry `C=C1C(=O)O[C@@H]2[C@H]3O[C@]3(C)CC/C=C(/COC(=O)c3cc(C(F)(F)F)cc(C(F)(F)F)c3)CC[C@@H]12`
4.8

====

# viability at 10 µM values compiled below
Test system: PC-3
Test: Cytotoxicity against human PC3 cells assessed as cell viability at 10 uM after 24 hrs by MTT assay relative to control
Assay type: functional
Settings: PC-3, 24 h, read-out: Activity
// return numeric value only (unit: %, not printed)

Sample records with viability at 10 µM:
compound=C=C1C(=O)O[C@@H]2[C@H]3O[C@]3(C)CC/C=C(/C)[C@@H](OC(=O)Nc3cc(C(F)(F)F)cc(C(F)(F)F)c3)C[C@@H]12 unit_abbreviation=% val=38.7
compound=C=C1C(=O)O[C@@H]2[C@H]3O[C@]3(C)CC/C=C(/C)[C@@H](OC(=O)c3cccs3)C[C@@H]12 unit_abbreviation=% val=93

We next turn to a different compound, shown below.
Consider the compound `C=C1C(=O)O[C@@H]2[C@H]3O[C@]3(C)CC/C=C(/C)[C@@H](OC(=O)c3cc(-c4ccc(Cl)cc4)on3)C[C@@H]12` and give its measured viability at 10 µM.
71.7

====

System: HCT-116
Assay: Cytotoxicity against human HCT116 cells assessed as cell viability at 10 uM after 24 hrs by MTT assay relative to control
Assay type: functional
Details: HCT-116, 24 h, read-out: Activity
REPORTED_ENDPOINT: viability at 10 µM (%)
// return numeric value only (unit: %, not printed)

compound="C=C1C(=O)O[C@@H]2[C@H]3O[C@]3(C)CC/C=C(/C)[C@@H](OC(C(=O)OCc3ccccc3)c3ccccc3)C[C@@H]12 (stereo partly drawn)" val=63.7
compound=C=C1C(=O)O[C@@H]2[C@H]3O[C@]3(C)CC/C=C(/COC(=O)c3coc(-c4ccc(Br)cc4)c3)CC[C@@H]12 val=11.8

Consider the compound `C=C1C(=O)O[C@@H]2[C@H]3O[C@]3(C)CC/C=C(/C)[C@@H](OC(=O)Nc3ccc([N+](=O)[O-])cc3)C[C@@H]12` and give its measured viability at 10 µM.
38

====

Test system: JeKo-1
Test: Cytotoxicity against human JeKo1 cells assessed as cell viability at 2 uM after 24 hrs by MTT assay relative to control
Assay type: functional
Settings: JeKo-1, 24 h, read-out: Activity
# viability at 2 µM values compiled below
// return numeric value only (unit: %, not printed)

Sample records with viability at 2 µM:
compound=C=C1C(=O)O[C@@H]2[C@H]3O[C@]3(C)CC/C=C(/C)[C@@H](OC(=O)c3cc(C(F)(F)F)cc(C(F)(F)F)c3)C[C@@H]12 target_entity=JeKo-1 reported_endpoint="viability at 2 µM" unit_abbreviation=% val=73.3
compound=C=C1C(=O)O[C@@H]2[C@H]3O[C@]3(C)CC/C=C(/C)[C@@H](OC(=O)Nc3cccc4ccccc34)C[C@@H]12 target_entity=JeKo-1 reported_endpoint="viability at 2 µM" unit_abbreviation=% val=97.6
compound=C=C1C(=O)O[C@@H]2[C@H]3O[C@]3(C)CC/C=C(/C)[C@@H](OC(=O)Nc3ccc([N+](=O)[O-])cc3)C[C@@H]12 target_entity=JeKo-1 reported_endpoint="viability at 2 µM" unit_abbreviation=% val=84.1
compound=C=C1C(=O)O[C@@H]2[C@H]3O[C@]3(C)CC/C=C(/COC(=O)c3ccc4ccccc4c3)CC[C@@H]12 target_entity=JeKo-1 reported_endpoint="viability at 2 µM" unit_abbreviation=% val=89.2
compound="C=C1C(=O)O[C@@H]2[C@H]3O[C@]3(C)CC/C=C(/COC(C(=O)OCc3ccccc3)c3ccccc3)CC[C@@H]12 (some centres not stated)" target_entity=JeKo-1 reported_endpoint="viability at 2 µM" unit_abbreviation=% val=98.7

Consider the compound `C=C1C(=O)O[C@@H]2[C@H]3O[C@]3(C)CC/C=C(/COC(=O)Nc3ccc(F)cc3F)CC[C@@H]12` and give its measured viability at 2 µM.
78.3

Consider the compound `C=C1C(=O)O[C@@H]2[C@H]3O[C@]3(C)CC/C=C(\C)[C@@H](OC(=O)c3ccc(C(F)(F)F)cc3)C[C@@H]12` and give its measured viability at 2 µM.
93.6
